Origin of values: patent US20230348603A1

targetOrTestSystem: T1, Human VSIG4-L-Fc (human)
T1 construct: also called hVSIG4-L-Fc; hVSIG4-L
T1 sequence (chain, as listed by the source limits assumed): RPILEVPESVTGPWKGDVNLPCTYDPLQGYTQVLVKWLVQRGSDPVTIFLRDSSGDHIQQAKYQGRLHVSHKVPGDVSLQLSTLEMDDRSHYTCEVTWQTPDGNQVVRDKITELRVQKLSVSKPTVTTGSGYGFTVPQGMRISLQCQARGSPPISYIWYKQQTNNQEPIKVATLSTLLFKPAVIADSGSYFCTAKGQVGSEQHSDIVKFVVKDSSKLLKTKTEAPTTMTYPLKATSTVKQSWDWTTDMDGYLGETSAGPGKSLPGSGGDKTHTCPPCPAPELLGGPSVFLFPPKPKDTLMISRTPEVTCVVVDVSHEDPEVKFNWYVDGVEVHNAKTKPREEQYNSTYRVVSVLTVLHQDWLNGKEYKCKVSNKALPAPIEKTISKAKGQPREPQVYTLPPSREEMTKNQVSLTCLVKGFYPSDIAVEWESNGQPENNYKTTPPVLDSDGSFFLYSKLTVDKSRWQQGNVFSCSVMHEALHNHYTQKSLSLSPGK
procedureSummary: BLI cross-blocking on hVSIG4-L-Fc, competitor 14C05 first
propertyLabel: binding signal (nm shift)
Give me the value, and tack the unit on after it.

**Query** Given the binder 9A10.C4 mouse/human chimeric IgG4 (S228P) kappa (antibody, V domains shown) VH: EVQLVESGGALVQPGGSLKLSCVASGFSFSNCVMSWVRQSPEKRLEWVATIGSDGSYSYYQDNVKGRFTVSRDNAKNTLYLQMSSLGSEDTALYYCGRHIYGYDVVDYWGQGTSLTVSS VL: DIVMTQSHKFMSTSVGDRVTITCKASQDVSNVVAWFQQKPGQSPKLLIYSASYRFGGVPDRFTGSGSGTDFTFTISSVQAEDLAVYYCQQHYDTPLTFGTGTTLELKR , what is its reported binding signal (nm shift)?
**Result** 0.14 nm

**Query** Again, but for 16F6.E1 mouse/human chimeric IgG4 (S228P) kappa (antibody, V domains shown) VH: QVQLQQPGAEMVRPGASLKLSCKASGYTFTSYWMHWVKQRPGQGLEWIGKIDPSKNTTHYNQNFRDKATLTVDRSSSTAYMQLNSLTSEDSAVYFCVTWDGDFTYWGQGTLVTISA VL: NIVLTQSPPSLAVSLGQRATISCRASESVDSYGNSFMHWYQQKPGQPPKLLIYLASNLESGVPARFSGSGSRTDFTLTIDPVEADDAATYFCHQNNEDPWTFGGGTKLEIKR
**Result** 0.56 nm

**Query** Again, but for 1H7.C7 mouse/human chimeric IgG4 (S228P) kappa (antibody, V domains shown) VH: EVQLVESGGGLVMPGGSRRLSCAASGFTFSDSGMYWVRQAPEKGLEWIAYISSGSDTLYYAATVKGRFTISRDNAKNTLFLQMTSLRSEDTAIYYCAKRNFYGYDVMDYWGQGTSVTVSS VL: DIVMTQSHKFMSTSVGDRVSITCKASQDVSNVVAWYQQKPGQSPKLLIYSASYRYTGVPDRFAGSGSGTDFTFTISSVQAEDLAVYYCQQHYSTPWTFGGGTKLEIKR
**Result** 0.13 nm
